Measured pIC50, listed per entry for reference.
# Test system: CEM cells HIV-1 protection, formazan growth assay
# test_name: NCI AIDS Antiviral Assay
# condition_description: measured here: growth of uninfected CEM cells
pIC50: −log10 of the molar value.

Study these solved cases before continuing.
compound | pIC50
CC(=O)NCc1nc(C#N)c(N)o1 | < 3.70
COc1ccc(NS(=O)C2CCCCC2)cc1 (stereo unspecified) | < 3.70
OC1CCOC1(O)c1ccccn1 (stereo unspecified) | < 3.70
CC(=O)OC1COC(n2c(=S)n(-c3ccccc3)c(=O)c3ccccc32)C(OC(C)=O)C1OC(C)=O (stereo unspecified) | < 4.44

Hey, CEM cells HIV-1 protection, formazan growth assay data for COC(=O)C(C)(C)OCc1ccc(C2NC(=O)N(c3cccc(Cl)c3)C(=O)N2c2cccc(Cl)c2)cc1 (stereo unspecified) : pIC50 came out at 4.62

Entry O=C(CC1C(=O)Nc2ccccc2S1=O)Nc1ccccc1 (stereo unspecified) under CEM cells HIV-1 protection, formazan growth assay had pIC50 of < 4.64

Tested system CEM cells HIV-1 protection, formazan growth assay; pIC50 recorded for O=C(OCc1ccccc1)N1c2cc([N+](=O)[O-])ccc2C(=O)N2CCC[C@H]2C1O (stereo partly specified) was 3.86

Item `O=C(O)CC/C(=N\Nc1nsc2ccccc12)c1ccc(Cl)cc1` ; assay system CEM cells HIV-1 protection, formazan growth assay; pIC50 reported as 5.17

`COc1cc(C(=O)n2c(=O)oc(=O)c3cc([N+](=O)[O-])ccc32)cc(OC)c1OC` tested on CEM cells HIV-1 protection, formazan growth assay gave pIC50: < 3.70

Form: item `CCOC(=O)c1ccc(CSc2ccc(OC)cc2)cc1` ; test system CEM cells HIV-1 protection, formazan growth assay; pIC50: 4.79

Lab note: compound COC(=O)c1cc(=O)nc2n1C1OC(CO)C(O)C1O2 (stereo unspecified) tested on CEM cells HIV-1 protection, formazan growth assay; recorded pIC50 was < 3.70

* * *

# Tested on: CEM cells HIV-1 protection, formazan growth assay
# test_name: NCI AIDS Antiviral Assay
value_kind: EC50

compound | value_kind | result
O/N=C(\C(=N/O)Nc1ccc(-c2ccc(NC(=N/O)/C(=N\O)c3ccccc3)cc2)cc1)c1ccccc1 | EC50 | > 37.2 µM
CCOC(=O)/C(C#N)=C/c1ccc(OC)cc1 | EC50 | > 155 µM
OCCC(N1CCOCC1)C(O)(c1ccccc1)c1ccccc1 (stereo not given) | EC50 | > 200 µM
CC1(C)[C@@H]2C[C@H]1C(Cc1ccc(C[C@H]3c4cc(-c5ccccn5)ncc4[C@H]4C[C@@H]3C4(C)C)cc1)c1cc(-c3ccccn3)ncc12 (stereo not given in full) | EC50 | > 20 µM
c1ccc(-c2nc3c(N4CCOCC4)ncnc3o2)cc1 | EC50 | > 25.7 µM
Cn1ccc(C(=O)NCCCCCNC(=O)c2ccn(C)c(=O)c2O)c(O)c1=O | EC50 | > 200 µM
COC(=O)/N=c1\cc(N2CC=CCC2)nc(N)n1O | EC50 | > 200 µM
O=C([CH-]C(=O)c1ccccc1)c1ccccc1.O=C([CH-]C(=O)c1ccccc1)c1ccccc1.[OH-].[OH-].[Ti+4] | EC50 | > 25.7 µM
Cc1ccc2cc([N+](=O)[O-])c3ccc(C)nc3c2n1 | EC50 | > 200 µM

Turning to the following compound.
response.value for `CCCc1cc(=O)oc2c3c(cc(OC(C)C)c12)O[C@H](C)[C@@H](C)[C@H]3O` (field: EC50) = > 200 µM
